Parameter: growth. Scope: all listed entries.
Test system: SF-295 CNS
Assay: NCI-60 one-dose screen, 48 h (100 = growth as untreated, 0 = no growth, -100 = all killed)
Details: 10 µM unless noted
Compounds without any hit were thinned out: in the full panel of roughly 83,000, 20% have a hit.
Quick note: give the figure in %, leave out the unit.

Below are worked cases with known answers.
>>> measured_result("O=C(CSc1nc2sc3c(c2c(=O)n1-c1ccc(Cl)cc1)CCCC3)NNC(=O)c1ccc(Br)cc1")
84.1
>>> measured_result("Cc1ccc2nc(NC(=O)Nc3cccc(Cl)c3)sc2c1")
98.8
>>> measured_result("N#C/C(=C1/C(=O)Nc2ccccc21)c1nnc(NC(=O)c2ccc(-n3c(=O)[nH]c4ccccc4c3=O)cc2)s1")
74.5

Here is another compound to look at.
Per the record, CC(C)C[C@H](NC(=O)[C@@H]1CCCCCCCCCCC(=O)N[C@@H](CC(=O)N2CCC[C@@H]2C2CCCC2)C(=O)N1)B(O)O has growth of -93.4

* * *

System: UO-31 renal
Assay: NCI-60 one-dose screen, 48 h
Settings: 10 µM unless noted
This is part of a sample that, as a whole, favours compounds with a hit. Of some 83,000 tested, about 20% had one in any assay. Active and inactive are the calls of the source. How the source made its calls: active means growth percent below 10; inactive means the rest.
Your reply should match one of these outcome classes. 1 = active, 0 = inactive

>>> category_label("C/C(=N/O)c1ccc(NC(=O)CSc2nnc(-c3ccc4nc(-c5ccc(Cl)cc5)[nH]c4c3)o2)cc1")
0

Prompt line: # lookup: test call for C=CC(=O)Nc1ccc(C(=O)/C=C/c2ccc(N(C)C)cc2)c(O)c1
Response line: 1

Prompt line: # lookup: test call for CCCCCCCCCCCCCCCCCC(=O)Nc1ccc(OC)cc1
Response line: 0

Prompt line: # lookup: test call for FC(F)(F)c1cc2c(Cl)ncnc2n1CCN1CCCCC1
Response line: 1

* * *

System: SNB-19 CNS
Assay: NCI-60 one-dose screen, 48 h (100 = growth as untreated, 0 = no growth, -100 = all killed)
Settings: 10 µM unless noted
This is part of a sample that, as a whole, favours compounds with a hit. Of some 83,000 tested, about 20% had one in any assay.
Friendly reminder: growth below 50% is TRUE, at or above is FALSE.

Worked cases, answers included:
>>> category_label("O=C(N/N=C/c1ccc(B(O)O)s1)c1[nH]c2ccc(Br)cc2c1-c1ccccc1")
"TRUE"
>>> category_label("COc1ccc(-c2cc(C(=O)N=Nc3c(O)[nH]c4ccc(Cl)cc34)c3ccccc3n2)cc1")
"TRUE"
>>> category_label("O=C(Nc1ccc(S(=O)(=O)N2CCCCC2)cc1)C(Cl)Cl")
"FALSE"

Please examine the following record next.
Prompt line: Please indicate whether the reported growth of O=C(N=Nc1c(O)[nH]c2ccc(Br)cc12)c1ccc2nc(-c3ccc(Cl)cc3)[nH]c2c1 is strictly below 50%.
Response line: TRUE

* * *

System: OVCAR-4 ovarian
Assay: NCI-60 one-dose screen, 48 h
Conditions: 10 µM unless noted
About 83,000 compounds went through this panel and 20% of them were active in at least one assay; those are over-represented in the sample as a whole. Activity calls are given as the source filed them. Rule for the calls: active = growth percent below 10; inactive = the rest.
Your reply should match one of these outcome classes. 1 = active, -1 = inactive

Prompt line: # lookup: test call for O=C(NNC(=O)c1ccc(OCc2nc3ccc(Cl)cc3[nH]2)cc1)Nc1ccc(Cl)c(Cl)c1
Response line: -1

Prompt line: # lookup: test call for COc1ccc2[nH]c(=O)c(CSc3ccccc3Nc3nccc(-c4ccc(Cl)cc4)n3)cc2c1
Response line: -1

Prompt line: # lookup: test call for Cc1cnc2ccc(Oc3ccccc3-c3ccccc3)nn12
Response line: -1

Prompt line: # lookup: test call for O=C1CCC(N2C(=O)c3cccc(NCCOCCOCCOCCC(=O)NCCCC(=O)NC(c4ccc5c(c4)OCO5)c4cc(Cl)c5cccnc5c4O)c3C2=O)C(=O)C1 (stereo not given)
Response line: -1

* * *

System: NCI-H522 lung
Test: NCI-60 one-dose screen, 48 h (100 = growth as untreated, 0 = no growth, -100 = all killed)
Conditions: 10 µM unless noted
The panel holds about 83,000 compounds, 20% with a hit somewhere; the sample as a whole holds those more often. Activity calls are given as the source filed them. How the source made its calls: active means growth percent below 10; inactive means the rest.
Parameter: growth. Scope: all listed entries.

>>> measured_result("Cc1ccc(N=Nc2c(N)nn3c(-c4cc5cc(Br)ccc5oc4=O)ccnc23)cc1")
"11.7% (inactive)"
>>> measured_result("Cc1nc2sccn2c1-c1nnc(SCC(C)C)o1")
"71.5% (inactive)"
>>> measured_result("O=C(CSc1nnc(-c2ccc(-c3nc4ccc(Cl)cc4[nH]3)cc2)o1)Nc1ccccc1")
"-3.89% (active)"
>>> measured_result("CCN(C(=O)CN1C(=O)/C(=C/c2ccco2)SC1=S)C1CCS(=O)(=O)C1 (stereo not drawn)")
"47.5% (inactive)"

Per the record, COc1ccc2c(c1)C(=O)N(C)C2C1c2c(cc3c(c2OC)OCO3)CCN1C (stereo not drawn) has growth of 36% (inactive)

Per the record, C/C(=N\Nc1ccc(C(=O)O)cc1)c1cnn(-c2cc(=O)[nH]c3ccc(C)cc23)c1C has growth of 89.4% (inactive)

Per the record, Cc1ccc(-c2cc(C(=O)N=Nc3c(O)[nH]c4ccc(F)cc34)c3ccccc3n2)cc1 has growth of 25.5% (inactive)

Per the record, O=C(N/N=C/c1ccc(Cl)o1)c1[nH]c2ccc(Br)cc2c1-c1ccccc1 has growth of -59.8% (active)

Per the record, CCc1ccc(SC2c3cc(OC)ccc3Oc3nc(N)c(C#N)c(N)c32)cc1 (stereo not drawn) has growth of -8.76% (active)

Per the record, COc1ccc(Nc2nnc(-c3c[nH]c4ccccc34)o2)cc1 has growth of 32.2% (inactive)

Per the record, O=C(N/N=C/c1ccoc1)c1[nH]c2ccc(Br)cc2c1-c1ccccc1 has growth of -82.2% (active)

* * *

System: SW-620 colon
Experiment: NCI-60 one-dose screen, 48 h
Conditions: 10 µM unless noted
The panel holds about 83,000 compounds, 20% with a hit somewhere; the sample as a whole holds those more often. Calls of active or inactive are those of the source. Rule for the calls: active = growth percent below 10; inactive = the rest.
Your reply should match one of these outcome classes. active, inactive

>>> category_label("C=CC(=O)N1CCN(c2ccc3nc4c(nc3c2C(F)(F)F)C(=O)c2ncccc2C4=O)CC1")
"active"
>>> category_label("O=C(N/N=C/c1ccc(B(O)O)s1)c1[nH]c2ccc(Br)cc2c1-c1ccccc1")
"active"
>>> category_label("CC1=C(C(=O)Nc2ccccc2)C(c2ccc3ccccc3c2)n2c(nc3ccccc32)N1 (stereo unspecified)")
"active"

Prompt line: # lookup: test call for Oc1ccc(F)c(Nc2nc(SCCN3CCOCC3)nc3c2cnn3CC(Cl)c2ccc(Br)cc2)c1 (stereo unspecified)
Response line: inactive

Prompt line: # lookup: test call for COc1ccc(NC2=C(I)C(=O)C(C)=C(C)C2=O)cc1
Response line: inactive

Prompt line: # lookup: test call for C/C(=N/O)c1ccc(NC(=O)CSc2nnc(-c3ccc4nc(-c5ccc(Cl)cc5)[nH]c4c3)o2)cc1
Response line: inactive

* * *

Tested on: SK-MEL-5 melanoma
Assay: NCI-60 one-dose screen, 48 h
Conditions: 10 µM unless noted
Compounds without any hit were thinned out: in the full panel of roughly 83,000, 20% have a hit. Calls of active or inactive are those of the source. Rule for the calls: active = growth percent below 10; inactive = the rest.
Your reply should match one of these outcome classes. label 1 (active), label 0 (inactive)

>>> category_label("FC(F)(F)CN1CCN(CCn2c(C(F)(F)F)cc3c(Cl)ncnc32)CC1")
"label 1"
>>> category_label("O=C(CSc1nc2sc3c(c2c(=O)n1-c1ccc(Cl)cc1)CCCC3)N/N=C/C=C/c1ccccc1")
"label 1"
>>> category_label("CCCCN1C(=O)/C(=C\\C(=O)c2cc3ccccc3oc2=O)c2ccccc21")
"label 0"

Prompt line: # lookup: test call for C/C(=N/O)c1ccc(NC(=O)CSc2nnc(-c3ccc(-c4nc5ccc(Cl)cc5[nH]4)cc3)o2)cc1
Response line: label 1

* * *

Tested on: 786-0 renal
Assay: NCI-60 one-dose screen, 48 h
Settings: 10 µM unless noted
This is part of a sample that, as a whole, favours compounds with a hit. Of some 83,000 tested, about 20% had one in any assay. Calls of active or inactive are those of the source. How the source made its calls: active means growth percent below 10; inactive means the rest.
Your reply should match one of these outcome classes. active, inactive

Worked cases, answers included:
>>> category_label("COc1ccc(N=Nc2c(N)nn3c(-c4cc5ccccc5oc4=O)ccnc23)cc1")
"inactive"
>>> category_label("COc1cc(C2CC(c3ccc(Cl)cc3)=Nc3c(N)nc(N)nc3N2)ccc1Oc1nc(Nc2ccc(F)cc2)nc(N(C)C)n1 (stereo not given)")
"inactive"
>>> category_label("COc1ccc2nc(NC(=O)c3ccc(N(C)C)cc3)sc2c1")
"inactive"
>>> category_label("O=C(Nc1ccc(F)cc1)Nc1nc2ccc([N+](=O)[O-])cc2s1")
"active"
>>> category_label("CN(C)c1nc(NCCNS(=O)(=O)c2ccc(C(=O)/C=C/c3ccccc3)cc2)nc(N2CCOCC2)n1")
"inactive"
>>> category_label("CN1CCN(C(=O)CCN(C(=O)Oc2cc3c(c4ccccc24)[C@H](CCl)CN3C(=O)c2cc3cc(OCCCN4CCC4)ccc3[nH]2)[C@H]2CCSSC2)CC1")
"active"
>>> category_label("Cc1[nH]nc2ccc3nc(-c4cnn(CCO)c4)c4c(c3c12)CCCC4")
"inactive"
>>> category_label("COc1cc(C2C(C(=O)OCc3ccccc3)=C(C)Nc3nc4ccccc4n32)cc(OC)c1OC (stereo not given)")
"active"

Prompt line: # lookup: test call for Cc1ccc(Cl)cc1NC(=O)N/C(N)=N/c1nc2ccccc2s1
Response line: active

Prompt line: # lookup: test call for N#CC1=C(c2cccs2)Nc2c(c(-c3ccccc3)nn2-c2ccccc2)C12C(=O)Nc1ccc(Br)cc12 (stereo not given)
Response line: active

Source listed as PubChem BioAssay (NCI).
